System: male Swiss-Webster mice
Experiment: Rotarod impairment test before MES testing
Format: in vivo, mouse
Conditions: 300 mg/kg p.o., 1 hour
# # I/# T (impaired/tested) per record follows

COMPOUND	# I/# T (impaired/tested)
CC(C)[C@H](C)C(N)=O [AA (R- enantiomer)]	0/4
CC1(C)C[C@@H]1C(N)=O	1/8
C[C@H](C(N)=O)C(C)(C)C	4/4
CC(C)[C@@H](C)C(N)=O [AA (S- enantiomer)]	0/4
CC(C)C(C)(C)C(N)=O	1/4

###

Test system: male Swiss-Webster mice
Assay: Rotarod impairment test before MES testing
Type: in vivo, mouse
Settings: 300 mg/kg p.o., 0.25 hours
Description: Test compounds (Compound S, Compound W, the S-enantiomer of Compound AA, the R-enantiomer of Compound AA, Compound HH, Compound JJ, and Compound MM) were dissolved in saline containing 0.5% methylcellulose. To determine time to peak effect, 300 mg/kg of each of the test compounds was suspended in 0.5% methylcellulose in saline and administered orally to a group of 20 mice. For comparative purposes, isovaleramide was also tested. […]
# # I/# T (impaired/tested) per record follows
PARAMETER MEASURED: # I/# T (impaired/tested)

MOLECULE	PARAMETER MEASURED	VALUE OBSERVED
CC(C)[C@H](C)C(N)=O [AA (R- enantiomer)]	# I/# T (impaired/tested)	3/4
CC1(C)C[C@@H]1C(N)=O [Compound S]	# I/# T (impaired/tested)	0/8
CC(C)C(C)(C)C(N)=O [Compound JJ]	# I/# T (impaired/tested)	1/4
CC(C)[C@@H](C)C(N)=O [AA (S- enantiomer)]	# I/# T (impaired/tested)	0/4
C[C@H](C(N)=O)C(C)(C)C [Compound MM]	# I/# T (impaired/tested)	2/4
